- Tested on: Wolbachia pipientis
- Test description: Anti-Wolbachia Cell-Based Screen
- Type: functional
- Parameters: scale not given: in the data most compounds retested in dose-response had high values
- Conditions used: 5 µM
About 13,000 (27%) of roughly 48,000 compounds showed an effect of 50% or more. Some of the results follow.
// reported Percent Effect for each item listed
Write the answer as a number in %, unit excluded.

Cc1n[nH]cc1CNCC(O)c1ccc(F)c(F)c1.Cl (configuration not stated) | -9.621
O=C(NC[C@H]1OC[C@@H](NC2COC2)[C@@H]1O)c1cccs1 | 4.392
Cc1nc(C)c(C)c(N2C[C@@H](CN3CCCN(C)CC3)[C@@H](CO)C2)n1 | 1.463

Give the reported value of Percent Effect for this record: COC(=O)c1ccc(F)c(Cn2nc(C)cc2C)c1 -3.045

Look up and report measured Percent Effect for this entry: CCn1c(C)cc(C(=O)N2CCCC(n3nc(C)nc3C)C2)c1C (configuration not stated) -3.865

Complete the entry with Percent Effect for Cc1cc(C)c2c(c1)NC(=O)C2CC(=O)O (configuration not stated) 18.62

Supply reported Percent Effect belonging to this compound: CC1CCCCN1S(=O)(=O)NCc1cccnc1OC1CCCC1 (configuration not stated) 2.179

Give a short answer stating reported Percent Effect for CN1CCOC(C(=O)Nc2nc(-c3ccc(Cl)cc3)n[nH]2)C1 (configuration not stated) . -7.364

Give the measured Percent Effect for CC(C(=O)N(C)C)S(=O)(=O)c1cc2c(cc1Cl)OCCO2 (configuration not stated) 4.925

Look up Percent Effect of CCCc1cc(C(=O)N2CCCC(n3ccnc3C)C2)[nH]n1 (configuration not stated) and report it. -7.935

Read off the recorded Percent Effect for Nc1c(Cl)cnn1C1CCN(Cc2ccccc2)C1 (configuration not stated) -6.784

Check the records and state Percent Effect for Cc1nccn1C1CCCN(C(=O)c2cnn(C)c2C2CC2)C1 (configuration not stated) 89.3

###

- Test system: Wolbachia pipientis
- Test description: Anti-Wolbachia Cell-Based Screen
- Type: functional
- Design: scale not given: in the data most compounds retested in dose-response had high values
- Conditions used: 5 µM
About 13,000 (27%) of roughly 48,000 compounds showed an effect of 50% or more. Some of the results follow.
Reported Percent Effect values for a set of compounds
I'd appreciate it if you included the unit after the number.

Cc1[nH]c(=O)[nH]c(=O)c1CN1CCCC(CCc2c(F)cccc2F)C1 (stereo unspecified) | -22.77%
Cn1cc(C(=O)NC[C@H]2OC[C@@H]3CCN(C4CCOCC4)C[C@@H]32)cn1.O=C(O)C(F)(F)F | -10.96%
CC(C)n1cnnc1CN(C)Cc1ccoc1 | 9.92%
O=C(NCCc1ccn(-c2ccccc2)n1)N1CCCC(O)C1 (stereo unspecified) | 108.2%
CCOC1CCCN(C(=O)NCCc2ccn(-c3ccccc3)n2)C1 (stereo unspecified) | 9.361%

Recall and state the measured Percent Effect for CC(=O)N1CCc2cc(C(=O)O)c(-c3ccsc3)nc2CC1.O=C(O)C(F)(F)F . -2.009%

Return Percent Effect (reported value) for this compound: CCOC1CCN(C(=O)NCCc2ccn(-c3ccccc3)n2)CC1 152.6%

Consider the compound O=C(NCCc1ccn(-c2ccccc2)n1)N1CCSCC1 and give its recorded Percent Effect. 87.95%

###

- Tested on: Wolbachia pipientis
- Test description: Anti-Wolbachia Cell-Based Screen
- Format: functional
- Design: scale not given: in the data most compounds retested in dose-response had high values
- Conditions used: 5 µM
Among all 48,000 compounds or so, about 13,000 (27%) showed an effect of 50% or more. The list shows a part of the results.
Entries and their Percent Effect
Report only the number, with the unit % understood.

Some solved cases for reference:
CO[C@H]1CCN(Cc2cnn(C)c2)[C@@H]2CN(Cc3cccnc3)C[C@H]12.O=C(O)C(F)(F)F.O=C(O)C(F)(F)F.O=C(O)C(F)(F)F | 4.089
COc1cc(C)cc(C(C(=O)O)N2CCN(C3CCCC3)CC2)c1OC (stereo not drawn) | -14.27
CN(Cc1csc(-c2ccccc2)n1)C(=O)CCNS(C)(=O)=O | -10.81
COCC1CN(Cc2c(C)noc2C)Cc2ccnn2C1.O=C(O)C(F)(F)F.O=C(O)C(F)(F)F (stereo not drawn) | -2.816
Cc1noc(C)c1CN1C[C@@H](N(C)Cc2ccco2)[C@H]2OCCC[C@H]21.O=C(O)C(F)(F)F.O=C(O)C(F)(F)F | 12.06
CC(C)(C)NC[C@@H]1CCC[C@@H]2CN(Cc3csnn3)C[C@@H]21.O=C(O)C(F)(F)F.O=C(O)C(F)(F)F | 1.989
CO[C@H]1CCN(Cc2c(C)noc2C)[C@@H]2CN(Cc3cccnc3)C[C@H]12.O=C(O)C(F)(F)F.O=C(O)C(F)(F)F.O=C(O)C(F)(F)F | 114.1
CO[C@@H]1CCN(Cc2cnn(C)c2)[C@@H]2CN(Cc3ccco3)C[C@@H]21.O=C(O)C(F)(F)F.O=C(O)C(F)(F)F | 6.003
O=C(O)CCNC(=O)Cc1csc(-c2cccc(Cl)c2)n1 | 119
O=C1CN(C(=O)c2cc(-c3ccco3)nc3c(Cl)cccc23)CCN1 | -11.35

Please find the next compound below.
Please give the documented Percent Effect of O=C(O)CNC(=O)Cc1csc(-c2cccc(Cl)c2)n1 95.07

###

- Test system: Wolbachia pipientis
- Test description: Anti-Wolbachia Cell-Based Screen
- Assay type: functional
- Design: scale not given: in the data most compounds retested in dose-response had high values
- Conditions used: 5 µM
The whole screen tested about 48,000 compounds, of which about 13,000 (27%) showed an effect of 50% or more. Some of the results follow.
Endpoint label: Percent Effect

Reference set (5 entries):
COc1ccccc1C1(C(=O)N2CCN(CC(C)O)CC2)CC1 (stereo unspecified) | -12.51%
CN(C)C(=O)CN1C[C@H]2CCN(C(=O)c3ccncc3)CC[C@H]2S1(=O)=O | 6.618%
COCCN1CC2(CCC1=O)CCN(Cc1cc(F)ccc1Cl)CC2 | 8.376%
Cc1nccn1C1CCCN(C(=O)CCCNc2ncccn2)C1 (stereo unspecified) | 106.9%
CCc1nccn1C1CCCN(C(=O)CCCNc2ncccn2)C1 (stereo unspecified) | 1.367%

Next compound, please.
Answer with reported Percent Effect of CC(O)C1CCN(C(=O)CCOc2ccccc2F)CC1 (stereo unspecified) 86.99%

###

- Tested on: Wolbachia pipientis
- Test description: Anti-Wolbachia Cell-Based Screen
- Assay type: functional
- Set-up: scale not given: in the data most compounds retested in dose-response had high values
- Conditions used: 5 µM
Among all 48,000 compounds or so, about 13,000 (27%) showed an effect of 50% or more. The list shows a part of the results.
Reported Percent Effect values follow for various molecules
Number only, in %; omit the unit.

Cc1noc(C2CCC3(CCN(C(=O)c4ccncn4)CC3)O2)n1 (centres undefined) | 97.14

Provide one value: measured Percent Effect of CCN(CCn1cccn1)Cc1nc(-c2cccs2)oc1C 6.026

Fill in reported Percent Effect for this entry: Cc1noc(C2CCC3(CCN(C(=O)c4cnccn4)CC3)O2)n1 (centres undefined) 108.3

###

- Test system: Wolbachia pipientis
- Test description: Anti-Wolbachia Cell-Based Screen
- Type: functional
- Parameters: scale not given: in the data most compounds retested in dose-response had high values
- Conditions used: 5 µM
About 13,000 (27%) of roughly 48,000 compounds showed an effect of 50% or more. The list shows a part of the results.
Endpoint label: Percent Effect (%)
Give the value in % but do not write % after it.

Use the examples below as a reference point.
Cc1ccccc1-c1cncc(C2CCN(C(C)C)CC2)n1 | -0.08562
COCCN1CCC(c2nc3ccc(NC4CCC4)cn3n2)CC1.O=C(O)C(F)(F)F | 99.27
CCn1nc(C)c(CNC(=O)c2cn(CCC3CCCCN3)nn2)c1C (centres undefined) | -6.64
Cc1cc(NC(=O)CN2CCN(c3nccs3)C(C)C2)no1 (centres undefined) | 110.3

Using the record for Cc1cc(NC(=O)C(C)N2CCN(c3nccs3)CC2)on1 (centres undefined) , state its measured Percent Effect. -1.934

Given the molecule CCn1nc(C)c(CNC(=O)c2cn(CC3CCCO3)nn2)c1C (centres undefined) , write its reported Percent Effect. 113.5

Please give the documented Percent Effect of CCc1cc(N2CCCC(c3noc(CC)n3)C2)ncn1 (centres undefined) -9.129

###

Listing: Percent Effect of selected compounds
- Tested on: Wolbachia pipientis
- Test description: Anti-Wolbachia Cell-Based Screen
- Type: functional
- Set-up: scale not given: in the data most compounds retested in dose-response had high values
- Conditions used: 5 µM
Out of some 48,000 compounds screened, about 13,000 (27%) showed an effect of 50% or more. This is one part of the list.
The figure you give is taken to be in %; do not add the unit.

CC(C)SCC(=O)NCc1cc2n(n1)CCCN(C1CCCCC1)C2 | 96.57
CSCC[C@H](N)C(=O)NCc1cc2n(n1)CCCN(C1CCCCC1)C2 | -4.094
Cn1ccnc1CN1CCN2C[C@H](OCc3ccccc3)C[C@H]2C1.O=C(O)C(F)(F)F.O=C(O)C(F)(F)F | -3.164
COc1ccsc1C(=O)Nc1cc(CN2CCOCC2)ccc1C | -3.737

Below: the item to evaluate.
Give the value of Percent Effect reported for the following: CSCCC(=O)NCc1cc2n(n1)CCCN(C1CCCCC1)C2 170.8
